testedOn: UniProtKB P10415
endpointName: IC50

CC1=C(C2=C(C)C(=O)c3c(cc(O)c(O)c3CC3CCCC3)C2=O)C(=O)c2cc(O)c(O)c(CC3CCCC3)c2C1=O
2270 nM

Q: Given the molecule `CC1=C(C2=C(C)C(=O)c3c(cc(O)c(O)c3C(=O)Cc3ccccc3)C2=O)C(=O)c2cc(O)c(O)c(C(=O)Cc3ccccc3)c2C1=O` , what is its reported IC50?
Result: 220 nM

Q: Please do the same for `CC1=C(C2=C(C)C(=O)c3c(cc(O)c(O)c3Cc3ccc(Cl)cc3)C2=O)C(=O)c2cc(O)c(O)c(Cc3ccc(Cl)cc3)c2C1=O` as well.
Result: 340 nM

----------
Each entry below carries its measured pKi, system: Apoptosis regulator Bcl-2 (Homo sapiens, UniProt P10415).
Sequence (P10415 whole entry): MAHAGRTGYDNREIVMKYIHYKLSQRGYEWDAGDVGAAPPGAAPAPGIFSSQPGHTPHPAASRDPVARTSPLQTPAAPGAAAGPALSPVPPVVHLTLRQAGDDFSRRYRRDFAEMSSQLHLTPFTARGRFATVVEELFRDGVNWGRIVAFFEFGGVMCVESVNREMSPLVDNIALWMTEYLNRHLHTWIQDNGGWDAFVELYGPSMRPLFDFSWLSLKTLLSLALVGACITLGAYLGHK
Notebook: values listed as pKi are -log10 of the concentration (mol/L).

Example compounds with recorded pKi:
CC1=C(C2=C(C)C(=O)c3c(cc(O)c(O)c3CCc3ccc(C)cc3)C2=O)C(=O)c2cc(O)c(O)c(CCc3ccc(C)cc3)c2C1=O
5.68
CC1=C(C2=C(C)C(=O)c3c(cc(O)c(O)c3CC(C)C)C2=O)C(=O)c2cc(O)c(O)c(CC(C)C)c2C1=O
6.77
CC1=C(C2=C(C)C(=O)c3c(cc(O)c(O)c3CCc3ccccc3)C2=O)C(=O)c2cc(O)c(O)c(CCc3ccccc3)c2C1=O
5.76

Could you now consider this next compound?
Q: Given the compound `CC1=C(C2=C(C)C(=O)c3c(cc(O)c(O)c3CCC3CCCCC3)C2=O)C(=O)c2cc(O)c(O)c(CCC3CCCCC3)c2C1=O` , what is its reported pKi?
Result: 5.35

----------
System: PC-3
test: Cytotoxicity against human PC3 cells expressing high level of Bcl-xL after 72 hrs by ATP-LITE assay
Type: functional, cell-based
conditionSet: PC-3, 72 h
endpointName: EC50

Example compounds with recorded EC50:
CC1=C(C2=C(C)C(=O)c3c(cc(O)c(O)c3CC3CCCC3)C2=O)C(=O)c2cc(O)c(O)c(CC3CCCC3)c2C1=O
5.5 µM
CC1=C(C2=C(C)C(=O)c3c(cc(O)c(O)c3CCc3ccc(OC(F)(F)F)cc3)C2=O)C(=O)c2cc(O)c(O)c(CCc3ccc(OC(F)(F)F)cc3)c2C1=O
8.99 µM

Could you now consider this next compound?
Q: Given the compound `CC1=C(C2=C(C)C(=O)c3c(cc(O)c(O)c3C(=O)NCc3cccc(C)c3)C2=O)C(=O)c2cc(O)c(O)c(C(=O)NCc3cccc(C)c3)c2C1=O` , what is its reported EC50?
Result: 5.44 µM

----------
Each entry below carries its measured IC50, system: Bcl-2-like protein 1 (Homo sapiens, UniProt Q07817).
Sequence (Q07817 whole entry): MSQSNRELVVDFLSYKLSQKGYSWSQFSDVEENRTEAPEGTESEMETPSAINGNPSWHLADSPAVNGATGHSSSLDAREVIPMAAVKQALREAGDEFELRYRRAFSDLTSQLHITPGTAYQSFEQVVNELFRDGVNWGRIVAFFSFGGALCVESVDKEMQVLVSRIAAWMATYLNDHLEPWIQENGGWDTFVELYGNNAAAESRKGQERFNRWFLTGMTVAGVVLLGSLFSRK
Answer by giving the amount and then stating its unit.

Example compounds with recorded IC50:
CC1=C(C2=C(C)C(=O)c3c(cc(O)c(O)c3Cc3ccccc3)C2=O)C(=O)c2cc(O)c(O)c(Cc3ccccc3)c2C1=O
340 nM
CC1=C(C2=C(C)C(=O)c3c(cc(O)c(O)c3CCc3ccc(C)cc3)C2=O)C(=O)c2cc(O)c(O)c(CCc3ccc(C)cc3)c2C1=O
3100 nM
CC1=C(C2=C(C)C(=O)c3c(cc(O)c(O)c3C(=O)Cc3ccccc3)C2=O)C(=O)c2cc(O)c(O)c(C(=O)Cc3ccccc3)c2C1=O
340 nM
CC1=C(C2=C(C)C(=O)c3c(cc(O)c(O)c3CC3CCCC3)C2=O)C(=O)c2cc(O)c(O)c(CC3CCCC3)c2C1=O
2990 nM

Q: Given the compound `CC1=C(C2=C(C)C(=O)c3c(cc(O)c(O)c3Cc3ccc(Cl)cc3)C2=O)C(=O)c2cc(O)c(O)c(Cc3ccc(Cl)cc3)c2C1=O` , what is its reported IC50?
Result: 150 nM

Q: Please do the same for `CC1=C(C2=C(C)C(=O)c3c(cc(O)c(O)c3CCC3CCCCC3)C2=O)C(=O)c2cc(O)c(O)c(CCC3CCCCC3)c2C1=O` as well.
Result: 12700 nM

Q: Please do the same for CC1=C(C2=C(C)C(=O)c3c(cc(O)c(O)c3C(=O)NCC(C)c3ccccc3)C2=O)C(=O)c2cc(O)c(O)c(C(=O)NCC(C)c3ccccc3)c2C1=O (configuration not stated) as well.
Result: 320 nM
